# test name: Pharmacokinetics in Sprague Dawley rats, single subcutaneous or intravenous dose (incl. 10, 30, 100 nmol/kg dose response)
# Format: in vivo
# assay setup: rat, plasma, sc; dose response, single subcutaneous dose 30 nmol/kg, male Sprague Dawley rats, mean; read-out: Cmax
*1 amine or outer side, *2 acyl side, *3 side chain or, on linkers, in order; H or OH if unused. Side-chain parts run from the residue outwards. [ ]: non-standard residue; d: D form. The star is where a group is joined. C20 diacid = O=C(O)CCCCCCCCCCCCCCCCCCC(=O)*; γGlu = O=C(O)[C@H](CCC(=O)[*:2])N[*:1]; εLys = N[C@@H](CCCCN[*:1])C(=O)[*:2]; pGlu = O=C1CC[C@@H](C(=O)O)N1; αMeL = CC(C)C[C@](C)(N)C(=O)O; AEEA = NCCOCCOCC(=O)O; Aib = CC(C)(N)C(=O)O
readout label: Cmax (µM)
Numbers only, in µM.

Some entries whose results are on file:
substance: [pGlu]GSPSGIVTS[αMeL]DVPT[Aib][αMeL]LQKILEQERAEKARQQAK([γGlu-AEEA-εLys-C20 diacid])EAAEILAQV-NH2 [SEQ ID NO: 22]
readout label: Cmax
measured: 0.129

substance: Ac-GSPSIVTS[αMeL]DVPT[Aib][αMeL]LQKILEQERAEKARQQAK([γGlu-AEEA-εLys-C20 diacid])EAAEILAQV-NH2 [SEQ ID NO: 1]
readout label: Cmax
measured: 0.105

Ask | Suppose we examine the substance {C20 diacid-εLys-AEEA-γGlu}-GSPSIVTS[αMeL]DVPT[Aib][αMeL]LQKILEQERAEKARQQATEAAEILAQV-NH2 [SEQ ID NO: 25] ; what Cmax value has been reported?
Reply | 0.0607

* * *

# test name: Pharmacokinetics in Cynomolgus monkeys, single subcutaneous or intravenous dose
# Type: in vivo
# assay setup: both sexes, cynomolgus monkey, plasma, sc, 183 nmol/kg, single subcutaneous dose 183 nmol/kg, individual animal, read-out: CL/F (converted)
*1 amine or outer side, *2 acyl side, *3 side chain or, on linkers, in order; H or OH if unused. Side-chain parts run from the residue outwards. [ ]: non-standard residue; d: D form. The star is where a group is joined. C20 diacid = O=C(O)CCCCCCCCCCCCCCCCCCC(=O)*; γGlu = O=C(O)[C@H](CCC(=O)[*:2])N[*:1]; εLys = N[C@@H](CCCCN[*:1])C(=O)[*:2]; pGlu = O=C1CC[C@@H](C(=O)O)N1; αMeL = CC(C)C[C@](C)(N)C(=O)O; AEEA = NCCOCCOCC(=O)O; Aib = CC(C)(N)C(=O)O
readout label: CL/F (mL/day/kg)
Answers are plain numbers, in mL/day/kg.

Ask | Consider the substance shown here: [pGlu]GSPSGIVTS[αMeL]DVPT[Aib][αMeL]LQKILEQERAEKARQQAK([γGlu-AEEA-εLys-C20 diacid])EAAEILAQV-NH2 [SEQ ID NO: 22] What is its recorded CL/F?
Reply | 12.5

* * *

Provide the reported half-life of each item.
# test name: Pharmacokinetics in Yucatan mini-pigs, single subcutaneous or intravenous dose
# Type: in vivo
# assay setup: male, Yucatan mini-pig, minipig, plasma, iv, 19 nmol/kg, single intravenous dose 19 nmol/kg, mean
*1 amine or outer side, *2 acyl side, *3 side chain or, on linkers, in order; H or OH if unused. Side-chain parts run from the residue outwards. [ ]: non-standard residue; d: D form. The star is where a group is joined. C20 diacid = O=C(O)CCCCCCCCCCCCCCCCCCC(=O)*; γGlu = O=C(O)[C@H](CCC(=O)[*:2])N[*:1]; εLys = N[C@@H](CCCCN[*:1])C(=O)[*:2]; αMeL = CC(C)C[C@](C)(N)C(=O)O; AEEA = NCCOCCOCC(=O)O; Aib = CC(C)(N)C(=O)O
One number for each entry, in h.

Solved cases below.
substance: Ac-GSPSIVTS[αMeL]DVPT[Aib][αMeL]LQKLLEQERAEKARQQAK([γGlu-AEEA-εLys-C20 diacid])EAAEILAQV-NH2 [SEQ ID NO: 2]
half-life (h): 85.3
//
substance: Ac-GSPSIVTS[αMeL]DVPT[Aib][αMeL]LQKILEQERAEKARQQAK([γGlu-AEEA-εLys-C20 diacid])EAAEILAQV-NH2 [SEQ ID NO: 1]
half-life (h): 71.5
//
substance: {C20 diacid-εLys-AEEA-γGlu}-GSPSIVTS[αMeL]DVPT[Aib][αMeL]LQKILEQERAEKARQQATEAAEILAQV-NH2 [SEQ ID NO: 25]
half-life (h): 96.4

For the next question, use this substance.
Ask | // lookup half-life for Ac-PPPIVTS[αMeL]DVPT[Aib][αMeL]LQKLLEQERAEKARQQAK([γGlu-AEEA-εLys-C20 diacid])EAAEILAQV-NH2 [SEQ ID NO: 48]
Reply | 88

* * *

# test name: Pharmacokinetics in Yucatan mini-pigs, single subcutaneous or intravenous dose
# Type: in vivo
# assay setup: minipig, plasma; single intravenous dose 19 nmol/kg, male Yucatan pigs, mean; read-out: C0
*1 amine or outer side, *2 acyl side, *3 side chain or, on linkers, in order; H or OH if unused. Side-chain parts run from the residue outwards. [ ]: non-standard residue; d: D form. The star is where a group is joined. C20 diacid = O=C(O)CCCCCCCCCCCCCCCCCCC(=O)*; γGlu = O=C(O)[C@H](CCC(=O)[*:2])N[*:1]; εLys = N[C@@H](CCCCN[*:1])C(=O)[*:2]; αMeL = CC(C)C[C@](C)(N)C(=O)O; AEEA = NCCOCCOCC(=O)O; Aib = CC(C)(N)C(=O)O
readout label: C0 (nM)
One number for each entry, in nM.

Some solved cases for reference:
substance: Ac-GSPSIVTS[αMeL]DVPT[Aib][αMeL]LQKLLEQERAEKARQQAK([γGlu-AEEA-εLys-C20 diacid])EAAEILAQV-NH2 [SEQ ID NO: 2]
C0 / nM: 694
//
substance: {C20 diacid-εLys-AEEA-γGlu}-GSPSIVTS[αMeL]DVPT[Aib][αMeL]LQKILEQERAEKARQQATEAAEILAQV-NH2 [SEQ ID NO: 25]
C0 / nM: 534
//
substance: Ac-PPPIVTS[αMeL]DVPT[Aib][αMeL]LQKLLEQERAEKARQQAK([γGlu-AEEA-εLys-C20 diacid])EAAEILAQV-NH2 [SEQ ID NO: 48]
C0 / nM: 943

Now take the following substance into account.
Ask | Any idea what its C0 is? The substance is Ac-GSPSIVTS[αMeL]DVPT[Aib][αMeL]LQKILEQERAEKARQQAK([γGlu-AEEA-εLys-C20 diacid])EAAEILAQV-NH2 [SEQ ID NO: 1]
Reply | 619

* * *

# test name: Pharmacokinetics in Yucatan mini-pigs, single subcutaneous or intravenous dose
# Type: in vivo
# assay setup: male, Yucatan mini-pig, minipig, plasma, sc, 18 nmol/kg, single subcutaneous dose 18 nmol/kg, Mean
*1 amine or outer side, *2 acyl side, *3 side chain or, on linkers, in order; H or OH if unused. Side-chain parts run from the residue outwards. [ ]: non-standard residue; d: D form. The star is where a group is joined. C20 diacid = O=C(O)CCCCCCCCCCCCCCCCCCC(=O)*; γGlu = O=C(O)[C@H](CCC(=O)[*:2])N[*:1]; εLys = N[C@@H](CCCCN[*:1])C(=O)[*:2]; pGlu = O=C1CC[C@@H](C(=O)O)N1; αMeL = CC(C)C[C@](C)(N)C(=O)O; AEEA = NCCOCCOCC(=O)O; Aib = CC(C)(N)C(=O)O
readout label: half-life (h)
Numbers only, in h.

Ask | Form field: reported half-life of [pGlu]GSPSGIVTS[αMeL]DVPT[Aib][αMeL]LQKILEQERAEKARQQAK([γGlu-AEEA-εLys-C20 diacid])EAAEILAQV-NH2 [SEQ ID NO: 22]
Reply | 82.5

* * *

For each entry below, report its Tmax value.
# test name: Pharmacokinetics in Yucatan mini-pigs, single subcutaneous or intravenous dose
# Assay type: in vivo
# assay setup: male, Yucatan mini-pig, minipig, plasma, sc, 19 nmol/kg, single subcutaneous dose 19 nmol/kg, Mean, read-out: Tmax
*1 amine or outer side, *2 acyl side, *3 side chain or, on linkers, in order; H or OH if unused. Side-chain parts run from the residue outwards. [ ]: non-standard residue; d: D form. The star is where a group is joined. C20 diacid = O=C(O)CCCCCCCCCCCCCCCCCCC(=O)*; γGlu = O=C(O)[C@H](CCC(=O)[*:2])N[*:1]; εLys = N[C@@H](CCCCN[*:1])C(=O)[*:2]; αMeL = CC(C)C[C@](C)(N)C(=O)O; AEEA = NCCOCCOCC(=O)O; Aib = CC(C)(N)C(=O)O
Numbers only, in h.

A selection of reference data follows.
substance: Ac-GSPSIVTS[αMeL]DVPT[Aib][αMeL]LQKILEQERAEKARQQAK([γGlu-AEEA-εLys-C20 diacid])EAAEILAQV-NH2 [SEQ ID NO: 1]
measure unit: h
Tmax: 6
--
substance: Ac-GSPSIVTS[αMeL]DVPT[Aib][αMeL]LQKLLEQERAEKARQQAK([γGlu-AEEA-εLys-C20 diacid])EAAEILAQV-NH2 [SEQ ID NO: 2]
measure unit: h
Tmax: 51
--
substance: Ac-PPPIVTS[αMeL]DVPT[Aib][αMeL]LQKLLEQERAEKARQQAK([γGlu-AEEA-εLys-C20 diacid])EAAEILAQV-NH2 [SEQ ID NO: 48]
measure unit: h
Tmax: 27

// switching to the query substance
Ask | Bench note: what Tmax did {C20 diacid-εLys-AEEA-γGlu}-GSPSIVTS[αMeL]DVPT[Aib][αMeL]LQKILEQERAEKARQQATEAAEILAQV-NH2 [SEQ ID NO: 25] show?
Reply | 24
